Reference source for all entries: paper PMC8515607

# Tested on: A549
# method: cells
# Assay type: cell-based, human
# recorded conditions: read-out: A549 IC50; 72 h exposure, SRB, mean ± SD
observed property: pIC50
Scale explanation: pIC50 corresponds to minus log10 of a concentration expressed in moles per litre.

• CNc1ccc2c(cc1=O)[C@@H](n1cc(CNC(=O)OCC(Cl)(Cl)Cl)nn1)CCc1cc(OC)c(OC)c(OC)c1-2 = 8.72

Here is another compound to look at.
Dear colleague, I am looking for the recorded pIC50 of the following compound: `CNc1ccc2c(cc1=O)[C@@H](n1cc(CNC(=O)OCC(C)C)nn1)CCc1cc(OC)c(OC)c(OC)c1-2`
8.92
